# credit: PubChem BioAssay (NCI)

- Test system: HL-60(TB) leukemia
- procedure_details: NCI tumour cell line growth inhibition, 48 h
assay_readout: TGI

INSERT INTO results (molecule, study_system, result) VALUES
  ('COc1ccc(C2=C(OC(=O)N(C)C)c3cccn3-c3cc(C(F)(F)F)ccc3S2)cc1', 'HL-60(TB) leukemia', '> 10 µM'),
  ('Cc1cc2c(c(C#N)c1C)NC(=O)CCC2=O', 'HL-60(TB) leukemia', '> 100 µM'),
  ('CC(=O)NNc1nc(C)c(C(/C=C/c2ccc3c(c2)OCO3)=N/Nc2ccccc2)s1', 'HL-60(TB) leukemia', '> 100 µM'),
  ('N#CCC(=O)Nc1cccc(C(F)(F)F)c1', 'HL-60(TB) leukemia', '> 100 µM');

Turning now to a further record.
Documented TGI of COC(=O)Cc1ccc2c(c1)Sc1ccc(CC(=O)OC)cc1N2C : > 93.3 µM

* * *

- System: K-562 leukemia
- procedure_details: NCI tumour cell line growth inhibition, 48 h
assay_readout: TGI (µM)
Report the figure in µM without appending any unit label.

INSERT INTO results (molecule, result_number) VALUES
  ('COc1cc(O)c([C@@H]2C[C@H](CCc3ccc(O)cc3)O[C@H](c3ccc(O)cc3)C2)c(O)c1C(=O)/C=C/c1ccc(O)cc1', 6.24);

Below: the item to evaluate.
Tested on K-562 leukemia, the item CCC[CH2][Sn-]([CH2]CCC)([CH2]CCC)[O]c1cc(Cl)c(Cl)cc1Cl showed TGI equal to 0.411

* * *

Items are presented alongside their recorded TGI.
- Tested on: MDA-MB-435
- procedure_details: NCI tumour cell line growth inhibition, 48 h
Give just the numeric value; µM need not be written.

INSERT INTO measurements (molecule, assay_readout, result_number) VALUES
  ('O=C1NCc2ccc3c(-c4cccc(Cl)c4)c[nH]c3c21', 'TGI', 0.239);

Please examine the following record next.
Note to self: TGI recorded for CCN1CC(C)Cn2c(=O)[nH]c3cc(Br)cc1c32 (stereo not given) was 9.74

* * *

- Test system: SF-268 CNS
- procedure_details: NCI tumour cell line growth inhibition, 48 h
assay_readout: TGI (µM)
// return numeric value only (unit: µM, not printed)

INSERT INTO results (compound, assay_readout, unit_text, result_number) VALUES
  ('COC(=O)N[C@H]1CCc2c(Br)c(OC)c(OC)c(OC)c2-c2ccc(SC)c(=O)cc21', 'TGI', 'µM', 16.6);

Consider CCOC(=O)/C(=C\NCC(O)c1ccccc1)c1nc2ccccc2[nH]1 (centres undefined) . Its measured TGI is 40.5

Measured TGI of C=C1C(=O)O[C@H]2[C@H]1CC/C(COC(=O)c1cc3cc(F)ccc3[nH]1)=C\CC[C@@]1(C)O[C@@H]21 : 3.3

# TGI of Cc1ccc([N+](=O)[O-])cc1S(=O)(=O)Nc1ccc(C2=NN(c3ccc([N+](=O)[O-])cc3[N+](=O)[O-])C(c3ccccc3)C2)cc1 (centres undefined) = 28

* * *

// reported GI50 for each item listed
- System: K-562 leukemia
- procedure_details: NCI tumour cell line growth inhibition, 48 h

Worked set:
INSERT INTO results (molecule, result) VALUES
  ('COc1cc(C2CC(c3ccc(C)cc3)=NN2C=O)ccc1Oc1ccnc2cc(Cl)ccc12 (stereo unspecified)', '> 50 µM'),
  ('N#Cc1c(Sc2ccccc2N)cccc1Sc1ccccc1N', '22.9 µM'),
  ('N=C1C(c2nc(-c3ccc(Br)cc3)cs2)=C(O)CN1Cc1cccnc1', '8.17 µM');

K-562 leukemia data for COc1ccc(N=C2CSc3nnc(-c4cc(F)c(Cl)cc4Cl)n3N2)cc1 ; its GI50: 0.515 µM

Kindly note: K-562 leukemia, Cc1cc(-c2ncc(CC(=O)Nc3ccc(-c4cnccn4)cn3)cc2C)ccn1 , GI50 value reported: 22.2 µM

With K-562 leukemia as the test system, COc1cc(-c2nn(-c3ccc(NC(=O)c4ccc(Cl)c(Cl)c4)cc3)cc2-c2ccncc2)ccc1Cl showed GI50 of 4.05 µM

Let me check: Cc1c2c(nn1-c1ccc(S(=O)(=O)NC(=S)Nc3ccccc3)cc1)-c1ccccc1CC2 , system K-562 leukemia, measured GI50 is > 50 µM

Record COc1ccc2cc(C(=O)/C=C/c3cc(OC)c(OC)c(OC)c3)ccc2c1 has K-562 leukemia GI50 equal to 2.49 µM

Item COc1cc(C2C=C(c3cccc(NC(C)=O)c3)Nc3ncnn32)cc(OC)c1OC (stereo unspecified) was tested on K-562 leukemia; the reported GI50 is 0.447 µM

# lookup: Cc1ccc(CNc2c3ccccc3nc3ccccc23)cc1 on K-562 leukemia, GI50 = 1.97 µM

The reported GI50 value, K-562 leukemia, for CC(=O)Nc1ccc2c(c1)c(C1=C(c3cn(C)c4ccccc34)C(=O)NC1=O)cn2C reads 0.926 µM

* * *

- Test system: 786-0 renal
- procedure_details: NCI tumour cell line growth inhibition, 48 h
# TGI per entry

INSERT INTO assay_data (molecule, study_system, result) VALUES
  ('CC(=O)C1CC(C)=CCC12C(=O)Nc1ccccc12 (stereo unspecified)', '786-0 renal', '> 100 µM'),
  ('CC(=O)C(C(C)=O)=C1CCCC(O)O1 (stereo unspecified)', '786-0 renal', '> 100 µM'),
  ('COC(=O)Cc1ccc2c(c1)Sc1ccc(CC(=O)OC)cc1N2C', '786-0 renal', '> 100 µM');

Note to self: TGI recorded for CC(=O)Nc1ccc2c(c1)c(C1=C(c3cn(C)c4ccccc34)C(=O)NC1=O)cn2C was > 25 µM

* * *

- Tested on: UO-31 renal
- procedure_details: NCI tumour cell line growth inhibition, 48 h
assay_readout: GI50

Worked cases, answers included:
INSERT INTO measurements (molecule, result) VALUES
  ('CCOC(=O)c1c2c(n3ccc(NC(=O)CCN4CCCC4)cc13)C(=O)c1ncccc1C2=O', '0.724 µM'),
  ('Cc1c2c(nn1-c1ccc(S(=O)(=O)NC(=S)Nc3ccccc3)cc1)-c1ccccc1CC2', '> 50 µM');

Attention now turns to another entry.
Measured GI50, COc1ccc(C(=O)/C(Br)=C/C(=O)O)cc1 : 20.3 µM

* * *

- Tested on: MDA-MB-435
assay_readout: GI50

Consider the worked cases shown below.
INSERT INTO assay_data (molecule, assay_readout, result) VALUES
  ('CCOC(=O)c1ccc(NC(=O)N2CC(C)OC(C)C2)cc1 (centres undefined)', 'GI50', '> 100 µM'),
  ('O=C(CN1CCN(c2ncccn2)CC1)Nc1ccc(Cl)cc1C(=O)c1ccccc1Cl', 'GI50', '> 100 µM'),
  ('COc1nc(N(C)O)nc(N(C)O)n1', 'GI50', '3.76 µM');

In the following, a different molecule is considered.
// assay MDA-MB-435, entry COc1ccc(-c2nc3sc(C)cn3c2/C=C/C(=O)c2cc(OC)c(OC)c(OC)c2)cc1 , GI50 value = 2.61 µM

* * *

- Tested on: A549 NSCLC
- procedure_details: NCI tumour cell line growth inhibition, 48 h
assay_readout: TGI

Some solved entries appear below for comparison.
INSERT INTO results (compound, assay_readout, result) VALUES
  ('COc1ccc(N2C=Nn3c(nc4sc(C)c(C)c4c3=O)C2)cc1', 'TGI', '> 100 µM'),
  ('CC(=O)Oc1ccc(/C=C/C(=O)O[C@@H](C)[C@H](C)OC(=O)/C=C/c2ccc(OC(C)=O)c(OC(C)=O)c2)cc1OC(C)=O', 'TGI', '> 100 µM'),
  ('CN(C)c1ccc(/C=N/Nc2nc3ccccc3c(=O)n2-c2ccccc2)cc1', 'TGI', '> 100 µM'),
  ('Cc1c2c(nn1-c1ccc(S(=O)(=O)NC(=S)Nc3ccccc3)cc1)-c1ccccc1CC2', 'TGI', '> 50 µM'),
  ('N#CCC(=O)Nc1cccc(C(F)(F)F)c1', 'TGI', '> 100 µM'),
  ('N#CCC1COc2ccccc2O1 (configuration not stated)', 'TGI', '> 10 µM');

Reported TGI for CC(=O)n1c(COS(C)(=O)=O)nc2ccccc21 was > 100 µM

Data point: COc1cccc(N2C(=O)C3c4[nH]c5ccccc5c4C4c5ccccc5CCC4C3C2=O)c1 (configuration not stated) ; TGI = > 10 µM

Record COc1ccc2[nH]c3c(c2c1)CCN(C)CC3 , field TGI: > 100 µM

For reference, reported TGI for CCOC/N=C(/N)NC#N stands at > 100 µM

For this compound ( COc1cccc2cc(C)c(C(=O)c3ccccc3)nc12 ), measured TGI is > 100 µM

The compound Cc1cn(C2CC(n3cc(Cn4cc(F)c(=O)[nH]c4=O)nn3)C(CO)O2)c(=O)[nH]c1=O (configuration not stated) showed TGI equal to > 100 µM
